Entry source: ChEMBL document CHEMBL3882724

assay.name: Half life in rat liver microsomes at 1 uM by LC-MS/MS analysis
measured.endpoint: half-life at 1 µM

Exam item: Reported half-life at 1 µM for `C[C@]12CCOC(=O)C[C@@H]1CC[C@@H]1[C@@H]2CC[C@]2(C)C(c3cccnc3)=CC[C@@H]12` : what is it?
Marked response: 10 to 60 min

Exam item: Same again, this time with `C[C@]12CC[C@H]3[C@@H](CC=C4C[C@@H](O)CC[C@@]43C)C1=CC=C2c1cccnc1`
Marked response: 10 to 60 min

Exam item: Same again, this time with `CCCOc1cncc(C2=CC[C@H]3[C@@H]4CCN5CCCCC[C@]5(C)[C@H]4CC[C@]23C)c1`
Marked response: 10 to 60 min

Exam item: Same again, this time with `COc1cncc(C2=CC[C@H]3[C@@H]4CCN5C(=O)CCCC[C@]5(C)[C@H]4CC[C@]23C)c1`
Marked response: 1 to 10 min

Exam item: Same again, this time with `C[C@]12CC[C@H]3[C@@H](CC[C@H]4C[C@@H](O)CC[C@@]43C)C1=CC=C2n1ccnc1`
Marked response: 10 to 60 min

Exam item: Same again, this time with `C[C@]12CCCCC1=CC[C@@H]1[C@@H]2CC[C@]2(C)C(c3cccnc3)=CC[C@@H]12`
Marked response: 1 to 10 min

Exam item: Same again, this time with `C[C@]12CC[C@H]3[C@@H](CCC4=CC(=O)NCC[C@@]43C)C1=CC=C2n1ccnc1`
Marked response: 10 to 60 min

Exam item: Same again, this time with Cc1cncc(C2=CC[C@H]3[C@@H]4CC(=O)C5CCCC[C@]5(C)[C@H]4CC[C@]23C)c1 (some centres undefined)
Marked response: 1 to 10 min

Exam item: Same again, this time with `C[C@]12CC[C@H]3[C@@H](CCC4=CC(=O)CC[C@@]43C)C1=CC=C2c1cccnc1`
Marked response: 1 to 10 min

Exam item: Same again, this time with C[C@]12CCNC(=O)C=C1CC[C@@H]1[C@@H]2CC[C@]2(C)C(n3ccnc3)CC[C@@H]12 (some centres undefined)
Marked response: 10 to 60 min

Exam item: Same again, this time with `C[C@]12CC[C@H]3[C@@H](CC[C@H]4CC(=O)NCC[C@@]43C)C1=CC=C2c1cccnc1`
Marked response: 1 to 10 min

Exam item: Same again, this time with `C[C@]12CCNC(=O)C=C1CC[C@@H]1[C@@H]2CC[C@]2(C)C(c3cccnc3)=CC[C@@H]12`
Marked response: 1 to 10 min

Exam item: Same again, this time with CN1CC[C@@]2(C)C(=CC1=O)CCC1[C@@H]2CC[C@]2(C)C(c3cccnc3)=CC[C@@H]12 (single isomer, unassigned)
Marked response: 10 to 60 min

Exam item: Same again, this time with `Cc1cncc(C2=CC[C@H]3[C@@H]4CC[C@H]5COC(=O)CC[C@]5(C)[C@H]4CC[C@]23C)c1`
Marked response: 1 to 10 min

Exam item: Same again, this time with `C[C@]12CC[C@H]3[C@@H](CCN4C(=O)CC=CC[C@]34C)[C@@H]1CC=C2c1cccnc1`
Marked response: 1 to 10 min

Exam item: Same again, this time with COc1cncc(C2=CC[C@H]3[C@@H]4CC(=O)C5CCCC[C@]5(C)[C@H]4CC[C@]23C)c1 (some centres undefined)
Marked response: 1 to 10 min

Exam item: Same again, this time with `CCc1cncc(C2=CC[C@H]3[C@@H]4CCN5C(=O)CCCC[C@]5(C)[C@H]4CC[C@]23C)c1`
Marked response: 1 to 10 min

Exam item: Same again, this time with `COc1cncc(C2=CC[C@H]3[C@@H]4CC[C@H]5COCCC[C@]5(C)[C@H]4CC[C@]23C)c1`
Marked response: 1 to 10 min

Exam item: Same again, this time with `C[C@]12CCNC(=O)C=C1CC[C@@H]1[C@@H]2CC[C@]2(C)C(n3ccnn3)=CC[C@@H]12`
Marked response: 1 to 10 min
